# TARGET_SYSTEM: hemagglutinin (HA) of live influenza A/Wisconsin/67/05 (H3N2) virus (influenza A virus A/Wisconsin/67/2005 …)
# MEASUREMENT_DESCRIPTION: cell-based or functional assay
RECORDED_ENDPOINT: % Neutralization (%)
Numbers only, in %.

{"BINDER": "TCN-539 (5056_A08) (antibody, V domains shown) VH: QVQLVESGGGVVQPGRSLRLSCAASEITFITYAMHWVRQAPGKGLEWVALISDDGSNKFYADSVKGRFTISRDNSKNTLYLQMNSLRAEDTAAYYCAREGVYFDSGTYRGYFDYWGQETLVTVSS VL: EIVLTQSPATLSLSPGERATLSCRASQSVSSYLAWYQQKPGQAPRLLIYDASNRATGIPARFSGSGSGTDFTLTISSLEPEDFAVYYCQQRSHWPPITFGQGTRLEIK", "% Neutralization / %": 99}

Turning now to a further record.
For reference, reported % Neutralization for TCN-555 (5246_L16) (antibody, V domains shown) VH: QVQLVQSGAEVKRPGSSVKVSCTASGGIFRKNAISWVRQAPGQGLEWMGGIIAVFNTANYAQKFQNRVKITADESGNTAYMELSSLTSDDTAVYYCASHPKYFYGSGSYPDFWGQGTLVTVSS VL: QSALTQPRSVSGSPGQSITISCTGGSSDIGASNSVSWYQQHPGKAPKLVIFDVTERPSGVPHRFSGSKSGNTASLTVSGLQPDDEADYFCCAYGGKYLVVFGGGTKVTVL stands at 5

Data provenance is patent US20150104459A1.
